Recorded values, source ChEMBL document CHEMBL4411331.

- test.protocol: Clearance in rat
- Format: ADME
- protocol.conditions: in vivo
measured.quantity: clearance (mL/min/kg)

C[C@@H]1OCC2(CCN(c3nc(N)c(Sc4cccnc4C(F)(F)F)c(=O)n3C)CC2)[C@@H]1N :: 21

====

- test.protocol: Half life in rat
- Type: ADME
- protocol.conditions: in vivo
measured.quantity: half-life (h)

C[C@@H]1OCC2(CCN(c3nc(N)c(Sc4cccnc4C(F)(F)F)c(=O)n3C)CC2)[C@@H]1N :: 10.9

====

- test.protocol: Oral bioavailability in rat at 6 mg/kg
- Format: ADME, organism-based
- protocol.conditions: in vivo
measured.quantity: bioavailability

C[C@H]1C[C@@H](N)C2(CCN(c3nc(N)c(Sc4cccnc4C(F)(F)F)c(=O)n3C)CC2)C1 :: 1%
